Assay: Cytotoxicity against human U87/CD4/CCR5 cells assessed as reduction in cell viability incubated for 3 days by XTT assay
Assay type: cell-based
Details: u87/cd4/ccr5, 72 h, time 3 day
Quantity: CC50

1) O=C(NC1(c2nc(CO)cs2)CCNCC1)c1ccc(-c2ccc(C(F)(F)F)cc2)[nH]1
57.7 µM

* * *

Readings of CC50 at 72 h for the listed compounds
Assay: Cytotoxicity against human TZM-bl cells assessed as reduction in cell viability incubated for 3 days by XTT assay
Type: cell-based
Conditions: TZM-bl cells, time 3 day
Quantity: CC50 at 72 h

1. NC[C@@H](NC(=O)c1ccc(-c2ccc(Cl)cc2)[nH]1)c1nccs1
38.9 µM
2. NC[C@H](NC(=O)c1ccc(NCC2CCCCC2)cc1)c1ncc(CO)s1
56.5 µM
3. Cc1nc([C@H](CN)NC(=O)c2cc3cc(Cl)ccc3[nH]2)sc1CO
> 55 µM
4. Cc1nc([C@H](CN)NC(=O)C(=O)Nc2ccc(Cl)cc2)sc1CO
> 54 µM
5. NC[C@H](NC(=O)c1ccc(C2CCCCC2)[nH]1)c1ncc(CO)s1
> 57 µM
6. NC[C@@H](NC(=O)Cc1ccc(OCC2CCCCC2)cc1)c1ncc(CO)s1
27.9 µM
7. NC[C@H](NC(=O)c1ccc(OCC2CCCCC2)cc1)c1ncc(CO)s1
26.5 µM
8. Cc1nc([C@H](CCN)NC(=O)C(=O)Nc2ccc(Cl)cc2)sc1CO
≥ 38.3 µM

* * *

Assay: Cytotoxicity against human TZM-bl cells assessed as reduction in cell viability incubated for 3 days by XTT assay
Type: cell-based
Conditions: TZM-bl cells, time 3 day
Quantity: CC50 at 72 h

1. NC[C@H](NC(=O)CNCc1ccc(Cl)cc1)c1ncc(CO)s1
> 70 µM
2. CC1(C)CC(NC(=O)C(=O)Nc2ccc(Cl)cc2)CC(C)(C)N1
60 µM
3. NC[C@H](NC(=O)Cc1ccc(OCC2CCCCC2)cc1)c1ncc(CO)s1
47.5 µM
4. Cc1nc([C@H](CN)NC(=O)c2cc3ccccc3[nH]2)sc1CO
> 60 µM
5. Cc1nc([C@@H](CN)NC(=O)c2cc3ccccc3[nH]2)sc1CO
> 60 µM
6. Cc1nc([C@@H](CN)NC(=O)C(=O)Nc2ccc(Cl)cc2)sc1CO
> 54 µM
7. Cc1nc([C@@H](CCN)NC(=O)C(=O)Nc2ccc(Cl)cc2)sc1CO
≥ 46.6 µM
8. Cc1nc([C@@H](CN)NC(=O)c2cc3cc(Cl)ccc3[nH]2)sc1CO
47 µM
9. NC[C@H](NC(=O)c1ccc(-c2ccc(Cl)cc2)[nH]1)c1nccs1
36.5 µM
10. NC[C@@H](NC(=O)c1ccc(C2CCCCC2)[nH]1)c1ncc(CO)s1
> 57 µM

* * *

System: TZM
Assay: Cytotoxicity against human TZM-bl cells assessed as reduction in cell viability incubated for 3 days by XTT assay
Type: cell-based
Details: tzm, 72 h, time 3 day
Quantity: CC50 (µM)

1) NCCNC(=O)c1ccc(-c2ccc(Cl)c(F)c2)[nH]1
17.8
2) O=C(NC1(c2nc(CO)cs2)CCNCC1)c1ccc(-c2ccc(C(F)(F)F)cc2)[nH]1
33.7

* * *

Target: Human immunodeficiency virus type 1 reverse transcriptase (Human immunodeficiency virus 1, UniProt Q72547)
Test: Inhibition of recombinant HIV1 reverse transcriptase by colorimetric assay
Quantity: IC50 (µM)

1) NC[C@H](NC(=O)c1ccc(-c2ccc(Cl)cc2)[nH]1)c1nccs1
18.9
2) NC[C@@H](NC(=O)c1ccc(-c2ccc(Cl)cc2)[nH]1)c1nccs1
31
3) O=C(NC1(c2nc(CO)cs2)CCNCC1)c1ccc(-c2ccc(C(F)(F)F)cc2)[nH]1
1.7

* * *

Readings of CC50 at 72 h for the listed compounds
Assay: Cytotoxicity against human TZM-bl cells assessed as reduction in cell viability incubated for 3 days by XTT assay
Assay type: cell-based
Settings: TZM-bl cells, time 3 day
Quantity: CC50 at 72 h

1) Cc1nc([C@@H](CN)NC(=O)NC(=O)c2ccc(Cl)cc2)sc1CO
> 54 µM
2) O=C(N[C@H](CC1CCNCC1)c1nc(CO)cs1)c1ccc(-c2ccc(C(F)(F)F)cc2)[nH]1
> 40 µM
3) Cc1nc([C@H](CN)NC(=O)NC(=O)c2ccc(Cl)cc2)sc1CO
> 54 µM
